# Method Description: Pharmacokinetics of Compound 141 in male Wistar rats, intravenous and oral
# Type: in vivo
# Condition Info: Wistar, rat, plasma; male rats, IV (2 mg/kg), mean; read-out: MRT(0-t)
Structures can show the parent of a compound that is named as a salt.
Measured Parameter: MRT last (h)
Kindly answer with a numeric value in h, unit omitted.

Task item: # MRT last lookup, item COc1cc2c(cc1OC)C1Cc3ccc(OC)c(OS(=O)(=O)c4cccc(F)c4)c3CN1CC2 (racemic) [Compound 141, phosphate Salt]
Reply: 1.46

----------
# Method Description: Pharmacokinetics of Compound 141 in male Wistar rats, intravenous and oral
# Assay type: in vivo
# Condition Info: Wistar, rat, plasma; male rats, PO (10 mg/kg), mean; read-out: MRT(0-t)
# Method: For intravenous administration, blood samples were collected via retro-orbital puncture into heparinized tubes at pre-dose and 0.083, 0.25, 0.5, 1, 2, 6, 8, and 24 hours (hr) post-dose. For oral administration, blood samples were collected at following time points: 0, 0.167, 0.417, 0.75, 1, 2, 4, 6, 8, and 24 hr. […] Concentrations of 72(+) and 72(−) in plasma samples were determined using a high performance liquid chromatography/mass spectrometry (HPLC/MS/MS) method. […]
Structures can show the parent of a compound that is named as a salt.
Measured Parameter: MRT last (h)
Kindly answer with a numeric value in h, unit omitted.

Task item: # MRT last lookup, item COc1cc2c(cc1OC)C1Cc3ccc(OC)c(OS(=O)(=O)c4cccc(F)c4)c3CN1CC2 (racemic) [Compound 141, phosphate Salt]
Reply: 4.25

----------
# Test system: LDLR ligand uptake activity in HepG2 cells
# Method Description: DiI-LDL uptake in HepG2 cells (Example 6); note: key: +: slightly increased fluorescent intensity over control; ++: modestly increased fluorescent intensity over control; +++: strongly increased fluorescent intensity over control
# Assay type: cell-based, human
# Condition Info: 20 hours, A, compound dose ≦10 μM
Measured Parameter: Activity on DiI-LDL uptake

Here's what some known entries look like.
COc1ccc2c(c1OS(=O)(=O)c1ccccc1C)CN1CCc3cc4c(cc3C1C2)OCO4 (centres unmarked) ... +++
COc1ccc2c(c1OS(=O)(=O)c1ccc(C(C)(C)C)cc1)CN1CCc3cc4c(cc3C1C2)OCO4 (centres unmarked) ... ++
COc1ccc2c(c1OC)CN1CCc3cc4c(cc3C1C2Cc1ccccc1)OCO4 (centres unmarked) ... +
COc1ccc2c(c1OC(=O)Nc1cccc(C)c1)CN1CCc3cc4c(cc3C1C2)OCO4 (centres unmarked) ... ++
COc1cc(NC(=O)Oc2c(OC)ccc3c2CN2CCc4cc5c(cc4C2C3)OCO5)cc(OC)c1 (centres unmarked) ... ++
COc1ccc2c(c1OS(=O)(=O)c1ccccc1)CN1CCc3cc4c(cc3C1C2)OCO4 (centres unmarked) ... +++
COc1ccc2c(c1OS(=O)(=O)c1cccs1)CN1CCc3cc4c(cc3C1C2)OCO4 (centres unmarked) ... +++

Read the next record carefully.
Task item: Record COc1ccc2c(c1OC(=O)NC(C)C)CN1CCc3cc4c(cc3C1C2)OCO4 (centres unmarked) : what is its Activity on DiI-LDL uptake with LDLR ligand uptake activity in HepG2 cells?
Reply: ++

----------
# Tested on: LDLR ligand uptake activity in HepG2 cells
# Method Description: DiI-LDL uptake in HepG2 cells (Example 6); note: key: +: slightly increased fluorescent intensity over control; ++: modestly increased fluorescent intensity over control; +++: strongly increased fluorescent intensity over control
# Assay type: cell-based, human
# Condition Info: 20 hours, A, compound dose ≦10 μM
Measured Parameter: Activity on DiI-LDL uptake

Here's what some known entries look like.
COc1ccc2c(c1OC(=O)N(C)C)CN1CCc3cc4c(cc3C1C2)OCO4 (centres unmarked) ... ++
COc1ccc2c(c1OC(=O)Nc1ccc(OC(F)(F)F)cc1)CN1CCc3cc4c(cc3C1C2)OCO4 (centres unmarked) ... ++
COc1ccc2c(c1OC)C(CC(C)=O)N1CCc3cc4c(cc3C1=C2)OCO4 (centres unmarked) ... +
COc1ccc2c(c1O)CN1CCc3cc4c(cc3C1C2)OCO4 (centres unmarked) ... ++

Task item: Record COc1ccc2c(c1OCc1ccccc1[N+](=O)[O-])CN1CCc3cc4c(cc3C1C2)OCO4 (centres unmarked) : what is its Activity on DiI-LDL uptake with LDLR ligand uptake activity in HepG2 cells?
Reply: ++
